molecular target: IRAK3 (human); assay: KINOMEscan competition binding; settings: compound 10.0 µM
Binary label based on kinase still bound, per cent of control with cut-off 80%: below gives Met, not below gives Not met.

Asked: Report whether reported kinase still bound, per cent of control is lower than 80% (strictly) for "CN1CCN(c2ccc(C(=O)Nc3ncc4c(n3)N(C)c3ccccc3C(=O)N4C)cc2)CC1"
Given back: Not met

Asked: Please state whether kinase still bound, per cent of control is below 80% for "COc1cc(N2CCN(C)CC2)ccc1Nc1ncc2c(n1)N(C)c1sccc1C(=O)N2C"
Given back: Met

Asked: Please state whether kinase still bound, per cent of control is below 80% for "O=C1NC(=O)/C(=C/c2c[nH]c(=O)c(-c3ccc(N4CCNCC4)nc3)c2)S1"
Given back: Not met

Asked: Is kinase still bound, per cent of control strictly under 80% for the entry "O=C1NC(=S)S/C1=C\c1ccc(-c2cncc3ccccc23)o1" ?
Given back: Met

Asked: Could you please tell me whether kinase still bound, per cent of control recorded for "CN1C(=O)c2ccccc2N(C)c2nc(NS(=O)(=O)c3ccc(N)cc3)ncc21" is less than 80%?
Given back: Not met

Asked: Please state whether kinase still bound, per cent of control is below 80% for "N=C1NC(=O)/C(=C/c2ccc(-c3cncc4ccccc34)o2)S1"
Given back: Met

Asked: In plain terms, does "COc1cc(N2CCC(O)CC2)ccc1Nc1ncc2c(n1)N1CCc3cccc(c31)C(=O)N2C" come in under 80% for kinase still bound, per cent of control?
Given back: Not met

Asked: Lab note: confirm whether the reported kinase still bound, per cent of control for this compound is below 80%, equality not counting. compound: "N=C1NC(=O)/C(=C/c2ccc(-c3cnc4ccccc4c3)o2)S1"
Given back: Met

Asked: Please check: kinase still bound, per cent of control for "CN1C(=O)[C@H]2CCC[C@H]2N(C2CCCC2)c2nc(Nc3ccc4ncccc4c3)ncc21" , strictly under 80% or not?
Given back: Met
